Test system: ZEB2
TEST: 3' UTR reporter interaction score (median-centred robust z-score of log2 firefly/Renilla activity); higher = less repression of the 3' UTR reporter
EXPERIMENTAL_CONTEXT: HEK293T; 48 h
METRIC: 3' UTR reporter interaction score

[[record]]
sequence_entry = "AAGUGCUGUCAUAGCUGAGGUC"
numeric_value = 1.38

[[record]]
sequence_entry = "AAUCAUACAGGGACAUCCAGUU"
numeric_value = -0.725

[[record]]
sequence_entry = "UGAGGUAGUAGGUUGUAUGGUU"
numeric_value = 0.734

[[record]]
sequence_entry = "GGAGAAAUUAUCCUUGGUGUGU"
numeric_value = -0.311

[[record]]
sequence_entry = "UGGAGAGAAAGGCAGUUC"
numeric_value = 1.17

[[record]]
sequence_entry = "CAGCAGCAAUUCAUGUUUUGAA"
numeric_value = 0.626

[[record]]
sequence_entry = "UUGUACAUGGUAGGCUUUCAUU"
numeric_value = -1.84

[[record]]
sequence_entry = "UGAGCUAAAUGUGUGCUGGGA"
numeric_value = 0.263

[[record]]
sequence_entry = "UGUAAACAUCCUUGACUGGA"
numeric_value = -1.5

[[record]]
sequence_entry = "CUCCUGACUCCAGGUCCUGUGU"
numeric_value = -1.51

[[record]]
sequence_entry = "UGAGGUAGUAGUUUGUACAGU"
numeric_value = -1.5

[[record]]
sequence_entry = "UUGAAACAAUCUCUACUGAAC"
numeric_value = 0.917

[[record]]
sequence_entry = "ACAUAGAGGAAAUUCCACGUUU"
numeric_value = -1.25

[[record]]
sequence_entry = "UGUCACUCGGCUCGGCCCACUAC"
numeric_value = -1.79

[[record]]
sequence_entry = "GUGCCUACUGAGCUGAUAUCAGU"
numeric_value = -0.6

[[record]]
sequence_entry = "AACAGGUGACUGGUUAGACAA"
numeric_value = -0.428

[[record]]
sequence_entry = "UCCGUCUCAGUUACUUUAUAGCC"
numeric_value = -2.24

[[record]]
sequence_entry = "GUGCAUUGCUGUUGCAUUGCA"
numeric_value = -2.34

[[record]]
sequence_entry = "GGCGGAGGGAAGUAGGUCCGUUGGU"
numeric_value = 0.059

[[record]]
sequence_entry = "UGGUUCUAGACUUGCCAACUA"
numeric_value = 1.08

[[record]]
sequence_entry = "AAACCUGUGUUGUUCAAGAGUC"
numeric_value = -1.07

[[record]]
sequence_entry = "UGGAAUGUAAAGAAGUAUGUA"
numeric_value = 0.551

[[record]]
sequence_entry = "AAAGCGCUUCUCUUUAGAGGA"
numeric_value = 0.196

[[record]]
sequence_entry = "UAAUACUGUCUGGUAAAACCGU"
numeric_value = -6.85

[[record]]
sequence_entry = "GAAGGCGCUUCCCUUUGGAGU"
numeric_value = 1.47

[[record]]
sequence_entry = "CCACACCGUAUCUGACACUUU"
numeric_value = 1.51

[[record]]
sequence_entry = "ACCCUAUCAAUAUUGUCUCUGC"
numeric_value = 0.936

[[record]]
sequence_entry = "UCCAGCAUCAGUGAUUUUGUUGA"
numeric_value = 0.915

[[record]]
sequence_entry = "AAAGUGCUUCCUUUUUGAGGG"
numeric_value = 0.44

[[record]]
sequence_entry = "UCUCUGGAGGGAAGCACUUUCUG"
numeric_value = -2.97

[[record]]
sequence_entry = "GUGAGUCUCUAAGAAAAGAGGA"
numeric_value = 0.201

[[record]]
sequence_entry = "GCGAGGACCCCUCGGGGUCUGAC"
numeric_value = -0.584

[[record]]
sequence_entry = "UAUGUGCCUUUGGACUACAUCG"
numeric_value = 0.0793

[[record]]
sequence_entry = "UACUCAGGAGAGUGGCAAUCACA"
numeric_value = 0.272

[[record]]
sequence_entry = "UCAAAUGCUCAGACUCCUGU"
numeric_value = -1

[[record]]
sequence_entry = "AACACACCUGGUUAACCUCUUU"
numeric_value = 0.382

[[record]]
sequence_entry = "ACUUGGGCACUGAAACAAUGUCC"
numeric_value = 1.78

[[record]]
sequence_entry = "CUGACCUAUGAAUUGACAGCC"
numeric_value = -6.22

[[record]]
sequence_entry = "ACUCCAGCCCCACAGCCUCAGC"
numeric_value = -0.519

[[record]]
sequence_entry = "CUCUAGAGGGAAGCGCUUUCUGUU"
numeric_value = 0.37

[[record]]
sequence_entry = "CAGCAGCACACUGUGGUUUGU"
numeric_value = 1.1

[[record]]
sequence_entry = "UCCCUGAGACCCUUUAACCUGUG"
numeric_value = 0.152

[[record]]
sequence_entry = "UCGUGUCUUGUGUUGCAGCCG"
numeric_value = 0.403

[[record]]
sequence_entry = "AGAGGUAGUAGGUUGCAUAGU"
numeric_value = -0.685

[[record]]
sequence_entry = "UCCCUGUCCUCCAGGAGCUCA"
numeric_value = -0.151

[[record]]
sequence_entry = "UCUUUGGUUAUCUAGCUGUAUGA"
numeric_value = 0.948

[[record]]
sequence_entry = "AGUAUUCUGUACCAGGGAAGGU"
numeric_value = -1.77

[[record]]
sequence_entry = "UACAGUACUGUGAUAACUGAAG"
numeric_value = -0.268

[[record]]
sequence_entry = "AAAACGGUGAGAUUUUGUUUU"
numeric_value = 0.0197

[[record]]
sequence_entry = "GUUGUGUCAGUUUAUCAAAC"
numeric_value = -0.154

[[record]]
sequence_entry = "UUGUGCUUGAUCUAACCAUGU"
numeric_value = -0.746

[[record]]
sequence_entry = "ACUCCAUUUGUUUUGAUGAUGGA"
numeric_value = 0.912

[[record]]
sequence_entry = "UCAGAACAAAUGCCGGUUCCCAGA"
numeric_value = 0.0144

[[record]]
sequence_entry = "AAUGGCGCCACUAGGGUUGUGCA"
numeric_value = 0.407

[[record]]
sequence_entry = "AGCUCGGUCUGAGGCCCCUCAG"
numeric_value = 2.05

[[record]]
sequence_entry = "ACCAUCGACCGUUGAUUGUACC"
numeric_value = 0.294

[[record]]
sequence_entry = "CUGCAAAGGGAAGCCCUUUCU"
numeric_value = -4.11

[[record]]
sequence_entry = "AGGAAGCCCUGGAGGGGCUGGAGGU"
numeric_value = -0.152

[[record]]
sequence_entry = "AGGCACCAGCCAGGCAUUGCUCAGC"
numeric_value = -0.849

[[record]]
sequence_entry = "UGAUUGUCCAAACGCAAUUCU"
numeric_value = 0.494

[[record]]
sequence_entry = "UCUAGUAAGAGUGGCAGUCG"
numeric_value = 0.627

[[record]]
sequence_entry = "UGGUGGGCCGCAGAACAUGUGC"
numeric_value = 0.648

[[record]]
sequence_entry = "AACAUUCAUUGUUGUCGGUGGGUU"
numeric_value = 1.49

[[record]]
sequence_entry = "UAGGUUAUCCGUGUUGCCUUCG"
numeric_value = 0.258


---

Test system: MYC
TEST: 3' UTR reporter interaction score (median-centred robust z-score of log2 firefly/Renilla activity); higher = less repression of the 3' UTR reporter
EXPERIMENTAL_CONTEXT: HEK293T; 48 h
# label = Condition met if 3' UTR reporter interaction score >= -0.2 else Condition not met

[[record]]
sequence_entry = "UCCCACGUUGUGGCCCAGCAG"
category_label = "Condition met"

[[record]]
sequence_entry = "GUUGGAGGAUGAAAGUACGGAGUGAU"
category_label = "Condition met"

[[record]]
sequence_entry = "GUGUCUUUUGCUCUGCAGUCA"
category_label = "Condition met"

[[record]]
sequence_entry = "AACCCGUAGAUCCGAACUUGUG"
category_label = "Condition met"

[[record]]
sequence_entry = "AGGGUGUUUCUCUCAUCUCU"
category_label = "Condition met"

[[record]]
sequence_entry = "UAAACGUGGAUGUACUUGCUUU"
category_label = "Condition not met"

[[record]]
sequence_entry = "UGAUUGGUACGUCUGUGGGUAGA"
category_label = "Condition not met"

[[record]]
sequence_entry = "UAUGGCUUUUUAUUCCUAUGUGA"
category_label = "Condition met"

[[record]]
sequence_entry = "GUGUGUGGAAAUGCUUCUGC"
category_label = "Condition not met"

[[record]]
sequence_entry = "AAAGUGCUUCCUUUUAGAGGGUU"
category_label = "Condition not met"

[[record]]
sequence_entry = "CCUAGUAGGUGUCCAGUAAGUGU"
category_label = "Condition met"

[[record]]
sequence_entry = "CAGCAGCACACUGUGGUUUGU"
category_label = "Condition met"

[[record]]
sequence_entry = "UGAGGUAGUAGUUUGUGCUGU"
category_label = "Condition not met"

[[record]]
sequence_entry = "UGGAGAGAAAGGCAGUUC"
category_label = "Condition met"

[[record]]
sequence_entry = "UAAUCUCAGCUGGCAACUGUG"
category_label = "Condition met"

[[record]]
sequence_entry = "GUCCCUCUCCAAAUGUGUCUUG"
category_label = "Condition met"

[[record]]
sequence_entry = "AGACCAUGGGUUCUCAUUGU"
category_label = "Condition met"

[[record]]
sequence_entry = "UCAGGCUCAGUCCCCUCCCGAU"
category_label = "Condition met"

[[record]]
sequence_entry = "AGCUGUCUGAAAAUGUCUU"
category_label = "Condition met"

[[record]]
sequence_entry = "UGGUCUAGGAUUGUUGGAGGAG"
category_label = "Condition met"

[[record]]
sequence_entry = "ACAGCAGGCACAGACAGGCAG"
category_label = "Condition met"

[[record]]
sequence_entry = "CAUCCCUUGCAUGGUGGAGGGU"
category_label = "Condition met"

[[record]]
sequence_entry = "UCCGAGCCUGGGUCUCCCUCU"
category_label = "Condition not met"

[[record]]
sequence_entry = "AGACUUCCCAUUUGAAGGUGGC"
category_label = "Condition not met"

[[record]]
sequence_entry = "GUCCAGUUUUCCCAGGAAUCCCUU"
category_label = "Condition met"

[[record]]
sequence_entry = "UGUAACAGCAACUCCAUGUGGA"
category_label = "Condition not met"

[[record]]
sequence_entry = "GGGCGCCUGUGAUCCCAAC"
category_label = "Condition not met"

[[record]]
sequence_entry = "CAAGUCACUAGUGGUUCCGUUUA"
category_label = "Condition not met"

[[record]]
sequence_entry = "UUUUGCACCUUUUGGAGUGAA"
category_label = "Condition met"

[[record]]
sequence_entry = "GUGUCUGCUUCCUGUGGGA"
category_label = "Condition met"

[[record]]
sequence_entry = "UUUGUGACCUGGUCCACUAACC"
category_label = "Condition not met"

[[record]]
sequence_entry = "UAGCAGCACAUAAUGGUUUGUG"
category_label = "Condition met"

[[record]]
sequence_entry = "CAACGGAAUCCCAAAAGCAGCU"
category_label = "Condition met"

